Ref: patent US20190153103A1

# targetOfAssay: T1, human BMPR1B coated on MSD plates (construct not stated) (human, UniProt O00238 14-126, limits assumed)
# T1 construct: also called BMPR1B receptor
# T1 sequence: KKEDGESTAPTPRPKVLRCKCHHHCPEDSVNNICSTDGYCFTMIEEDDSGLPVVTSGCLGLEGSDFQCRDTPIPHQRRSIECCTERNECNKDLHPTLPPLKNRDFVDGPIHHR
# methodSummary: MSD ELISA, BMP4 blocked
# Parameters: concentration or dose not given beside the values
quantityKind: % inhibition (%)
Entry rule: numbers only, all in %.

Just so you know, measured % inhibition for SC91.1 (murine anti-BMPR1B antibody) (antibody, V domains shown, Murine hybridoma antibody with a kappa light chain) VH: QVQLQQPGAELVKPGASVKLSCKASGYTFTSYWMQWVKQRPGQGLEWIGEIDPSDNYTLYNQKFKGKATLTVDTSSSTAYMQLSSLTSEDSAVYYCARFGYYVDYWGLGTTLTVSS VL: DVVMTQTPLSLPVSLGDQASIFCRSSQSLVHSTGNTYLHWYLQKPGQSPKLLIYKVSNRFSGVPDRFSGSGSGTDFTLKISRVEAEDLGVYFCSQSTHVPFTFGSGTKLEIK came out at 75
